Tested on: CASK
condition: concentration: 1 μM, replicates: in singlicate; n = 1;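 further: KINOMEscan kinase panel screen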
Note to self: %Inh under 10% means fulfilled, ties and anything higher get not fulfilled.

- smiles record: "Nc1ncc(-c2cn[nH]c2)c2scc(-c3ccc4c(c3)CCN4C(=O)Cc3ccccc3)c12"
  tgt: "CASK"
  group: "not fulfilled"
- smiles record: "O=C(O)C(F)(F)F.O=c1[nH]ccc2nc(N[C@@H]3CCNC3)nc(Nc3ccc4c(c3)S(=O)(=O)CC4)c12"
  tgt: "CASK"
  group: "not fulfilled"
- smiles record: "Cc1cccc(Nc2nc(NCCN)ncc2C(N)=O)c1"
  tgt: "CASK"
  group: "not fulfilled"
- smiles record: "Fc1cc(Cl)ccc1Nc1ccnc2cc(-c3ccc(CN4CCSCC4)o3)ccc12"
  tgt: "CASK"
  group: "fulfilled"
- smiles record: "N#CC1(c2cccc(C(=O)Nc3cccc(Oc4ccc5nc(NC(=O)C6CC6)sc5n4)c3)c2)CC1"
  tgt: "CASK"
  group: "not fulfilled"
- smiles record: "Cc1ccc(O)cc1Nc1ccnc2cc(-c3ccc(CN4CCCCC4)o3)ccc12"
  tgt: "CASK"
  group: "fulfilled"

###

Test system: TYK2(JH1domain-catalytic)
condition: concentration: 1 μM, replicates: in singlicate; n = 1
Entries and their %Inh

- molecule: "CNc1nccc(-c2ccc3c(N)n[nH]c3c2)n1 [GSK2206003]"
  tgt: "TYK2(JH1domain-catalytic)"
  %Inh / %: 46
- molecule: "Nc1ncc(-c2cn[nH]c2)c2scc(-c3ccc4c(c3)CCN4C(=O)Cc3ccccc3)c12 [GSK2593067]"
  tgt: "TYK2(JH1domain-catalytic)"
  %Inh / %: 10
- molecule: "COc1cccc2c(-c3ccncc3)c(-c3ccc(F)cc3)nn12 [GW468513]"
  tgt: "TYK2(JH1domain-catalytic)"
  %Inh / %: 25
- molecule: "Cc1nn2c(=O)cc(N3CCO[C@H](C)C3)nc2n1Cc1cccc(Cl)c1Cl [GSK2373693]"
  tgt: "TYK2(JH1domain-catalytic)"
  %Inh / %: 17
- molecule: "CN(c1ccc(F)c(NC(=O)c2cccc(OC(C)(C)C#N)c2Cl)c1)c1ccc2nc(NC(=O)C3CC3)sc2n1"
  tgt: "TYK2(JH1domain-catalytic)"
  %Inh / %: 11
- molecule: "Nc1ncc(-c2ccc3nccc(-c4ccncc4)c3c2)cc1S(=O)(=O)N1CCCCC1 [GSK1693850]"
  tgt: "TYK2(JH1domain-catalytic)"
  %Inh / %: 4
- molecule: "CC(C)c1nc(-c2cccc(NS(=O)(=O)c3c(F)cccc3F)c2)c(-c2ccnc(Nc3ccc(N4CCOCC4)nc3)n2)s1.Cl [GSK1723980]"
  tgt: "TYK2(JH1domain-catalytic)"
  %Inh / %: 45
- molecule: "Cc1cccc(Nc2nc(N[C@H]3CCCC[C@H]3N)ncc2C(N)=O)c1.Cl [GSK986310]"
  tgt: "TYK2(JH1domain-catalytic)"
  %Inh / %: 70
- molecule: "Fc1cc(Cl)ccc1Nc1ccnc2cc(-c3ccc(CN4CCOCC4)o3)ccc12 [GW560109]"
  tgt: "TYK2(JH1domain-catalytic)"
  %Inh / %: 18
- molecule: "Cc1cccc(Nc2nc(NCCN)ncc2C(N)=O)c1 [GSK1292139]"
  tgt: "TYK2(JH1domain-catalytic)"
  %Inh / %: 44
- molecule: "Cc1ccc(O)cc1Nc1ccnc2cc(-c3ccc(CN4CCCCC4)o3)ccc12 [GW557777]"
  tgt: "TYK2(JH1domain-catalytic)"
  %Inh / %: 63
- molecule: "c1ccc(Oc2ccc(Nc3ccnc4cc(-c5ccc(CN6CCCCC6)o5)ccc34)cc2)nc1 [GW567143]"
  tgt: "TYK2(JH1domain-catalytic)"
  %Inh / %: 16

Cited source for all entries: paper PMC5540273
